tested on: naturally aged mice; test: Anti-aging evaluation in naturally aged mice, Example 31, Table 55; type: in vivo, mouse; settings: untreated 0.82 g
Endpoint Label: Fat Mass (g)
Answers are plain numbers, in g.

Query COC(=O)[C@H]1Cc2c([nH]c3ccccc23)[C@H](c2ccc(S(C)(=O)=O)cc2)N1C(=O)CCl yields Fat Mass of 0.89

I have 4 compounds here; please give me Fat Mass for each one.
1. NC(=O)c1ncn([C@@H]2O[C@H](CO)[C@@H](O)[C@H]2O)n1
2. CN(Cc1cnc2nc(N)nc(N)c2n1)c1ccc(C(=O)N[C@@H](CCC(=O)O)C(=O)O)cc1 [LX-2901, Methotrexate]
3. Cc1nc(-c2nc(-c3ccc(OC(F)(F)F)cc3)no2)nn1Cc1cccc(N2CCC(S(C)(=O)=O)CC2)c1
4. Nc1ccc(O)c(C(=O)O)c1

Result:
1: 0.85; 2: 0.90; 3: 1.03; 4: 0.88

I have 8 compounds here; please give me Fat Mass for each one.
1. CC/C=C\C/C=C\C/C=C\C/C=C\C/C=C\C/C=C\CCC(=O)O
2. CN(C)c1cccc(-c2c3c(=O)n(-c4ccccc4Cl)[nH]c3cc(=O)n2C)c1
3. O=C(NCc1ccncc1)C12CC3CC(C1)CC(c1ccc(Cl)cc1)(C3)C2
4. NCC(=O)CCC(=O)O
5. CCn1c(C#CCNc2ccccc2)cc2cc(CNC)ccc21
6. [2H]C([2H])([2H])OCC1(CO)C(=O)C2CCN1CC2 (centres unmarked)
7. C#CC(=O)N1[C@@H](CCCC)Cc2cc(OC)ccc2[C@@H]1c1ccc(NC23CC4CC(CC(C4)C2)C3)cc1
8. CCNCc1nc2c(O)c(Cl)cc(Cl)c2c(=O)n1C

Result:
1: 1.13; 2: 0.84; 3: 0.88; 4: 0.89; 5: 1.08; 6: 0.97; 7: 1.21; 8: 0.99

---

Please go through the items and note down their HMGN1.
system: HMGN1 secreted from senescent A549 cells; experiment: HMGN1 secretion (ELISA) from senescent A549 cancer cells, Example 12; format: cell-based, human; settings: senescent untreated = 100%; 30 μM; 90 μM for LX-305, 905, 1302, 1601, 1603, 2003, 2702, 2901, 3106; 270 μM for LX-1103, 2005, 2007;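 further: A549 cells made senescent by doxorubicin exposure, with DMSO-treated cells serving as the non-senescent control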
The number alone won't do; follow it with the unit.

I have 7 molecules here; please give me HMGN1 for each one.
1. Cc1nc(-c2nc(-c3ccc(OC(F)(F)F)cc3)no2)nn1Cc1cccc(N2CCC(S(C)(=O)=O)CC2)c1
2. C[N+](C)(C)CCO.C[N+](C)(C)CCO.[SH-].[SH-].[S]=[Mo]=[S]
3. C[C@@H]1CC[C@@]23C[C@H](O)C(=O)[C@@]2(O)[C@]1(C)[C@H](OC(=O)CCl)C[C@@H](C1=CCn2c(=O)n(-c4ccccc4)c(=O)n2C1)[C@@H]3C
4. S=C(N/N=C1\CCCc2cccnc21)N1CCN(c2ccccn2)CC1
5. Cc1oncc1C(=O)Nc1ccc(C(F)(F)F)cc1 [LX-1603, Leflunomide]
6. CN(Cc1cnc2nc(N)nc(N)c2n1)c1ccc(C(=O)N[C@@H](CCC(=O)O)C(=O)O)cc1 [LX-2901, Methotrexate]
7. CC1(C)C=C2[C@H]3CC[C@@H]4[C@@]5(C)CCC(=O)C(C)(C)[C@@H]5CC[C@@]4(C)[C@]3(C)CC[C@@]2(C(=O)O)CC1

Result:
1. 305%
2. 193%
3. 295%
4. 329%
5. 163%
6. 189%
7. 192%

---

test system: naturally aged C57BL6J mice; assay type: in vivo, mouse; conditions: after 7 days; 6 mm punch dorsal skin wounds; naturally aged mice; untreated aged 3.2 (±0.4)
Endpoint Label: Wound size (mm)

Query Cc1cccc([C@H](C)c2cnc[nH]2)c1C [LX-6807, Dexmedetomidine] yields Wound size (mm) of 1.7 (±0.1) mm

Query CC1(C)C=C2[C@H]3CC[C@@H]4[C@@]5(C)CCC(=O)C(C)(C)[C@@H]5CC[C@@]4(C)[C@]3(C)CC[C@@]2(C(=O)O)CC1 [LX-2007, Moronic acid] yields Wound size (mm) of 3.0 (±0.2) mm

Next:
Query C[C@H]1[C@H](C)CC[C@]2(C(=O)O)CC[C@]3(C)C(=CC[C@@H]4[C@@]5(C)CC[C@H](O)C(C)(C)[C@@H]5CC[C@]43C)[C@H]12 [LX-2001, Ursolic acid] yields Wound size (mm) of 2.5 (±0.5) mm

---

test system: naturally aged mice; experiment: Anti-aging evaluation in naturally aged mice, Example 31, Table 55; type: in vivo, mouse; settings: skin, untreated = 1.0;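 further: Vehicle-dosed control mice received solution alone at matching volume, values compare test-compound-treated aged mice against that control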
Endpoint Label: Skin SDF1 mRNA (fold)
Numbers only, in fold.

Guide cases for Skin SDF1 mRNA, answers given:
Entry CCn1c(C#CCNc2ccccc2)cc2cc(CNC)ccc21 [LX-905] ; assay system naturally aged mice; Skin SDF1 mRNA recorded at 1.5

Entry NCC(=O)CCC(=O)O [LX-1103, 5-Aminolevulinic acid] ; assay system naturally aged mice; Skin SDF1 mRNA recorded at 1.7

Entry C#CC(=O)N1[C@@H](CCCC)Cc2cc(OC)ccc2[C@@H]1c1ccc(NC23CC4CC(CC(C4)C2)C3)cc1 [LX-5411] ; assay system naturally aged mice; Skin SDF1 mRNA recorded at 1.9

Entry C[C@@H](C(=O)Nc1ccc(Cl)cc1)[C@H]1CC[C@@H](c2ccnc3ccc(F)cc32)CC1 [LX-8805, Linrodostat] ; assay system naturally aged mice; Skin SDF1 mRNA recorded at 1.9

I have 6 molecules here; please give me Skin SDF1 mRNA for each one.
1. CCOC(=O)[C@@H](N)CCC(=O)N[C@@H](CSCc1ccccc1)C(=O)N[C@@H](C(=O)OCC)c1ccccc1 [LX-2602, Ezatiostat]
2. [2H]C([2H])([2H])OCC1(CO)C(=O)C2CCN1CC2 (centres unmarked) [LX-5721]
3. Nc1ccc(O)c(C(=O)O)c1 [LX-9118, 5-aminosalicylic acid]
4. CN(Cc1cnc2nc(N)nc(N)c2n1)c1ccc(C(=O)N[C@@H](CCC(=O)O)C(=O)O)cc1 [LX-2901, Methotrexate]
5. Cn1cc(C[C@@H](N)C(=O)O)c2ccccc21 [LX-8801, Indoximod]
6. CC12CCN(CC1)C(CNC(=O)C(F)(F)F)C2=O (centres unmarked) [LX-5706]

Result:
1: 2.0; 2: 1.7; 3: 1.8; 4: 1.8; 5: 2.6; 6: 1.4

I have 4 molecules here; please give me Skin SDF1 mRNA for each one.
1. S=C(N/N=C1\CCCc2cccnc21)N1CCN(c2ccccn2)CC1 [LX-801]
2. COC[C@]1(CO)C(=O)[C@H]2CC[N@]1[C@H](C)C2 [LX-5731]
3. CC(=O)N[C@@H](Cc1c[nH]c2ccccc12)C(=O)N[C@@H](CCC(=O)C=[N+]=[N-])C(=O)OC(C)C [LX-3201, Sirpiglenastat]
4. CO[C@]1(C(=O)N[C@@H](C)c2ccc(-n3cc(F)cn3)nc2)CC[C@H](c2nc(C)cc(Nc3cc(C)[nH]n3)n2)CC1 [LX-1902, Pralsetinib]

Result:
1. 2.1
2. 2.0
3. 2.0
4. 1.6

I have 6 molecules here; please give me Skin SDF1 mRNA for each one.
1. O=C(C(C[N+](=O)[O-])=NO)N1CCN(C(c2ccc(Cl)cc2)c2ccc(Cl)cc2)CC1 [LX-403]
2. CN[C@H](CC(C)C)C(=O)N[C@H]1C(=O)N[C@@H](CC(N)=O)C(=O)N[C@H]2C(=O)N[C@H]3C(=O)N[C@H](C(=O)N[C@H](C(=O)O)c4cc(O)cc(O)c4-c4cc3ccc4O)[C@H](O)c3ccc(c(Cl)c3)Oc3cc2cc(c3O[C@@H]2O[C@H](CO)[C@@H](O)[C@H](O)[C@H]2O[C@H]2C[C@](C)(N)[C@H](O)[C@H](C)O2)Oc2ccc(cc2Cl)[C@H]1O [LX-5424, Vancomycin]
3. CCN(CC)C(=S)SSC(=S)N(CC)CC [LX-1601, Disulfiram]
4. C[C@@H]1CC[C@@]23C[C@H](O)C(=O)[C@@]2(O)[C@]1(C)[C@H](OC(=O)CCl)C[C@@H](C1=CCn2c(=O)n(-c4ccccc4)c(=O)n2C1)[C@@H]3C [LX-1801]
5. Cc1[nH]nc(C(F)(F)F)c1Cc1sc2c(c1C(=O)N1C[C@](C)(O)CO1)c(=O)n(C)c(=O)n2C(C)C [LX-3203]
6. Fc1ccc(-n2cc(CCCCN3CCC4(CC3)OCc3ccccc34)c3ccccc32)cc1 [LX-1102, Siramesine]

Result:
2.7
1.7
2.1
2.2
2.2
2.3

---

system: senescent human cells; assay: Viability of doxorubicin-induced senescent human cells (CellTiter-Glo), Example 11; type: cell-based; conditions: 10 μM; 0 μM = 100
Endpoint Label: Survival (%)
One number for each entry, in %.

Guide cases for Survival, answers given:
Query CCOC(=O)[C@@H](N)CCC(=O)N[C@@H](CSCc1ccccc1)C(=O)N[C@@H](C(=O)OCC)c1ccccc1 [LX-2602, Ezatiostat] yields Survival of 76.9

Query Cc1nc(-c2nc(-c3ccc(OC(F)(F)F)cc3)no2)nn1Cc1cccc(N2CCC(S(C)(=O)=O)CC2)c1 [LX-3200] yields Survival of 14.3

Query S=C(N/N=C1\CCCc2cccnc21)N1CCN(c2ccccn2)CC1 [LX-801] yields Survival of 28.2

Query CN(Cc1cnc2nc(N)nc(N)c2n1)c1ccc(C(=O)N[C@@H](CCC(=O)O)C(=O)O)cc1 [LX-2901, Methotrexate] yields Survival of 104.8

Proceeding to the next compound to report its Survival.
Query C[N+](C)(C)CCO.C[N+](C)(C)CCO.[SH-].[SH-].[S]=[Mo]=[S] [LX-2601] yields Survival of 58.6
